Assay: FIH study 67856633LYM1001 plasma pharmacokinetics
Assay type: in vivo, human
Conditions: human, plasma, oral, 300 mg, Cycle 1 Day 1, 50 mg capsule, cohort 6 × 50 mg (300 mg QD); mean; read-out: Cmax
Description: The study consists of a dose escalation phase (Part 1), to determine the recommended Phase 2 dose(s) (RP2D[s]), followed by an expansion phase at the RP2D(s) (Part 2). The dose escalation phase is supported using an adaptive dose escalation strategy guided by the modified continual reassessment method (mCRM) based on a Bayesian Logistic Regression Model (BLRM) with escalation with overdose control (EWOC) principle. […]
assayReadout: Cmax

O=C(Nc1ccnc(C(F)(F)F)c1)c1cnn(-c2cccc3c(=O)[nH]ccc23)c1C(F)(F)F [Compound A]: ~8810 ng/mL
